assay: Assessment of solubility: HT solubility in pION buffer, UV spectrophotometry
condition: pION system solution buffer, pH 4.5, pH 4.5, aqueous buffer, kinetic from dmso stock, Solubility (pH 4.5), pH 4.5 buffer, 16-19 h incubation, 1.0% DMSO
Label true when solubility >= 1 µg/mL; otherwise false.

Below, 5 compounds whose answers are already recorded.
> print(dat)
                                   compound  qualitative.label
1  Cc1ccc(OCc2ccc(CN3CCS(=O)(=O)CC3)cc2C)c(-c2csc(N3CCC(C(=O)O)CC3)n2)c1              false
2  Cc1ccc(OCc2ccc(CN3CCS(=O)(=O)CC3)cc2C)c(-c2csc(N3CCC(CC(=O)O)CC3)n2)c1               true
3  Cc1cc(CN2CCS(=O)(=O)CC2)ccc1COc1ccccc1-c1csc(N2CCC(C(=O)O)C(C(F)(F)F)C2)n1 (stereo not shown)               true
4  CCOC1CCN(C(=O)c2ccc(COc3ccc(C)cc3-c3csc(N4C[C@H]5CC[C@@H](C4)[C@H]5C(=O)O)n3)c(C)c2)C1 (stereo partly shown)              false
5  Cc1cc(CN2CCOCC2)ccc1COc1ccccc1-c1csc(N2C3CCC2CC(C(=O)O)C3)n1 (stereo not shown)               true

# input for lookup
*Q* Is it the case that Cc1ccc(OCc2ccc(CN3CCS(=O)(=O)CC3)cc2C)c(-c2csc(N3CC4C(C3)C4C(=O)O)n2)c1 (stereo not shown) has solubility reaching or exceeding 1 µg/mL?
*A* true

---

assay: Assessment of solubility: HT solubility in pION buffer, UV spectrophotometry
condition: pION system solution buffer, pH 7.4, pH 7.4, aqueous buffer, kinetic from dmso stock, Solubility (pH 7.4), pH 7.4 buffer, 16-19 h incubation, 1.0% DMSO
measure: solubility

> print(dat)
                                   molecule  measured.value
1  Cc1ccc(OCc2ccc(CN3CCN(C(=O)N(C)C)CC3)cc2C)c(-c2csc(N3CCC(C(=O)O)CC3)n2)c1      > 59 µg/mL
2  Cc1cc(CN2CCS(=O)(=O)CC2)ccc1COc1ccc(C#N)cc1-c1csc(N2CC3CCC(C2)C3C(=O)O)n1 (stereo not shown)      > 60 µg/mL

Report solubility for every entry below.
1. COCCN(C)Cc1ccc(COc2ccc(C)cc2-c2csc(N3CC[C@@H](C(=O)O)[C@@H](C)C3)n2)c(C#N)c1
2. Cc1ccc(OCc2ccc(CN3CCOCC3)cc2C)c(-c2csc(N3C[C@H]4C[C@@H](C3)[C@H]4C(=O)O)n2)c1
3. N#Cc1cc(CN2CCS(=O)(=O)CC2)ccc1COc1c(Cl)cccc1-c1csc(N2CCC(C(=O)O)CC2)n1
4. Cc1ccc(OCc2ccc(CN(C)CC3CCOCC3)cc2C#N)c(-c2csc(N3CCC(C(=O)O)CC3)n2)c1

*A*
> 66 µg/mL
> 53 µg/mL
> 60 µg/mL
> 68 µg/mL

# map each molecule to its solubility
1. Cc1ccc(OCc2ccc(CN3CCOCC3)cc2C)c(-c2csc(N3CCC(C(=O)O)C3)n2)c1 (stereo not shown)
2. Cc1ccc(OCc2ccc(CN3CCOCC3)cc2C)c(-c2csc(N3CCC(F)(C(=O)O)CC3)n2)c1
3. Cc1cc(C(=O)N2CCCCC2)ccc1COc1c(-c2csc(N3CCC(C(=O)O)CC3)n2)cccc1C(F)(F)F
4. Cc1ccc(OCc2ccc(CN3CCCCC3)cc2C#N)c(-c2csc(N3CCC(C(=O)O)CC3)n2)c1
5. Cc1ccc(OCc2ccc(C(=O)N3CCCCC3)cc2C)c(-c2csc(N[C@@H]3CC[C@H](C(=O)O)C3)n2)c1
6. Cc1ccc(OCc2ccc(C(=O)N(C)Cc3ccnn3C)cc2C)c(-c2csc(N3C[C@H]4CC[C@@H](C3)[C@H]4C(=O)O)n2)c1
7. Cc1ccc(OCc2ccc(C(C)N3CCOCC3)cc2C)c(-c2csc(N3CC4CCC(C3)C4C(=O)O)n2)c1 (stereo not shown)

*A*
["> 62 µg/mL", "> 58 µg/mL", "> 58 µg/mL", "5.2 µg/mL", "> 53 µg/mL", "> 53 µg/mL", "41 µg/mL"]
